B1: E3 ubiquitin-protein ligase Midline-1, residues 172 to 214; numbered along this chain, O15344 (parent)
chain: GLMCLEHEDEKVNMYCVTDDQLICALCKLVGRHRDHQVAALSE

# Variants of: B1
# PROTOCOL SUMMARY: abundance fitness (aPCA) (normalised: wild type 0, dead -1); higher = more abundant; growth selection in yeast, the domain comes from the species named
# CONDITION PARAMETERS: Homo sapiens
Ranges used to classify abundance fitness: Low: < -0.2; Medium: ≥ -0.2 and < 0.06; High: ≥ 0.06

>>> class_assignment("A25D")
"Medium"
>>> class_assignment("L5I")
"Low"
>>> class_assignment("E6F")
"Medium"
>>> class_assignment("R32A")
"Medium"
>>> class_assignment("D9L")
"High"
>>> class_assignment("E10A")
"Medium"
>>> class_assignment("D19S")
"Low"
>>> class_assignment("A40Y")
"Low"
>>> class_assignment("V30S")
"High"
>>> class_assignment("E6D")
"Medium"
>>> class_assignment("C27N")
"Low"
>>> class_assignment("L22G")
"High"
>>> class_assignment("A39M")
"Medium"
>>> class_assignment("H33W")
"Low"
>>> class_assignment("D19K")
"Low"
>>> class_assignment("M14E")
"High"
>>> class_assignment("R32K")
"High"
>>> class_assignment("L41I")
"Medium"
>>> class_assignment("C4G")
"Low"
>>> class_assignment("L22H")
"High"
>>> class_assignment("D20L")
"Low"
>>> class_assignment("K11D")
"Low"
>>> class_assignment("A40V")
"Low"
>>> class_assignment("G31T")
"Low"
>>> class_assignment("V38R")
"Low"
>>> class_assignment("V12I")
"High"
>>> class_assignment("A40P")
"High"
>>> class_assignment("L41H")
"High"
>>> class_assignment("E6G")
"Low"
>>> class_assignment("L29S")
"High"
>>> class_assignment("H7T")
"Low"
>>> class_assignment("Q37A")
"Medium"
>>> class_assignment("H7G")
"Low"
>>> class_assignment("V12M")
"Medium"
>>> class_assignment("G31H")
"Medium"
>>> class_assignment("L22R")
"High"
>>> class_assignment("L26S")
"High"
>>> class_assignment("K28A")
"High"
>>> class_assignment("R32P")
"Medium"
>>> class_assignment("V38T")
"Low"
>>> class_assignment("D9W")
"Medium"
>>> class_assignment("D9F")
"High"
>>> class_assignment("H36M")
"Low"
>>> class_assignment("V38S")
"Medium"
>>> class_assignment("L26T")
"High"
